experiment: Effective permeability of the compound in PBS at 10 uM at pH 7.4 after 16 hrs by PAMPA-BBB assay
Quick reference: Papp at 16 h, 10 µM of the listed items.
Remember to follow the number with its unit.

>>> result("CN(Cc1cnc2nc(N)nc(N)c2n1)c1ccc(C(=O)N[C@@H](CCC(=O)O)C(=O)O)cc1 [METHOTREXATE]")
"0.007 ×10⁻⁶ cm/s"

Now examine the next entry.
Exam item: Reported Papp at 16 h, 10 µM for CCCCCCCCCCCC[C@@H](O)[C@H]1CC[C@H]([C@H](O)CCCC[C@H](O)CCCCC[C@@H](O)CC2=C[C@H](C)OC2=O)O1 : what is it?
Marked response: 0.51 ×10⁻⁶ cm/s
